target: biotinylated RBD of TcsL (Paeniclostridium sordellii) (UniProt Q46342); assay: SPR
Sequence (Q46342 whole entry): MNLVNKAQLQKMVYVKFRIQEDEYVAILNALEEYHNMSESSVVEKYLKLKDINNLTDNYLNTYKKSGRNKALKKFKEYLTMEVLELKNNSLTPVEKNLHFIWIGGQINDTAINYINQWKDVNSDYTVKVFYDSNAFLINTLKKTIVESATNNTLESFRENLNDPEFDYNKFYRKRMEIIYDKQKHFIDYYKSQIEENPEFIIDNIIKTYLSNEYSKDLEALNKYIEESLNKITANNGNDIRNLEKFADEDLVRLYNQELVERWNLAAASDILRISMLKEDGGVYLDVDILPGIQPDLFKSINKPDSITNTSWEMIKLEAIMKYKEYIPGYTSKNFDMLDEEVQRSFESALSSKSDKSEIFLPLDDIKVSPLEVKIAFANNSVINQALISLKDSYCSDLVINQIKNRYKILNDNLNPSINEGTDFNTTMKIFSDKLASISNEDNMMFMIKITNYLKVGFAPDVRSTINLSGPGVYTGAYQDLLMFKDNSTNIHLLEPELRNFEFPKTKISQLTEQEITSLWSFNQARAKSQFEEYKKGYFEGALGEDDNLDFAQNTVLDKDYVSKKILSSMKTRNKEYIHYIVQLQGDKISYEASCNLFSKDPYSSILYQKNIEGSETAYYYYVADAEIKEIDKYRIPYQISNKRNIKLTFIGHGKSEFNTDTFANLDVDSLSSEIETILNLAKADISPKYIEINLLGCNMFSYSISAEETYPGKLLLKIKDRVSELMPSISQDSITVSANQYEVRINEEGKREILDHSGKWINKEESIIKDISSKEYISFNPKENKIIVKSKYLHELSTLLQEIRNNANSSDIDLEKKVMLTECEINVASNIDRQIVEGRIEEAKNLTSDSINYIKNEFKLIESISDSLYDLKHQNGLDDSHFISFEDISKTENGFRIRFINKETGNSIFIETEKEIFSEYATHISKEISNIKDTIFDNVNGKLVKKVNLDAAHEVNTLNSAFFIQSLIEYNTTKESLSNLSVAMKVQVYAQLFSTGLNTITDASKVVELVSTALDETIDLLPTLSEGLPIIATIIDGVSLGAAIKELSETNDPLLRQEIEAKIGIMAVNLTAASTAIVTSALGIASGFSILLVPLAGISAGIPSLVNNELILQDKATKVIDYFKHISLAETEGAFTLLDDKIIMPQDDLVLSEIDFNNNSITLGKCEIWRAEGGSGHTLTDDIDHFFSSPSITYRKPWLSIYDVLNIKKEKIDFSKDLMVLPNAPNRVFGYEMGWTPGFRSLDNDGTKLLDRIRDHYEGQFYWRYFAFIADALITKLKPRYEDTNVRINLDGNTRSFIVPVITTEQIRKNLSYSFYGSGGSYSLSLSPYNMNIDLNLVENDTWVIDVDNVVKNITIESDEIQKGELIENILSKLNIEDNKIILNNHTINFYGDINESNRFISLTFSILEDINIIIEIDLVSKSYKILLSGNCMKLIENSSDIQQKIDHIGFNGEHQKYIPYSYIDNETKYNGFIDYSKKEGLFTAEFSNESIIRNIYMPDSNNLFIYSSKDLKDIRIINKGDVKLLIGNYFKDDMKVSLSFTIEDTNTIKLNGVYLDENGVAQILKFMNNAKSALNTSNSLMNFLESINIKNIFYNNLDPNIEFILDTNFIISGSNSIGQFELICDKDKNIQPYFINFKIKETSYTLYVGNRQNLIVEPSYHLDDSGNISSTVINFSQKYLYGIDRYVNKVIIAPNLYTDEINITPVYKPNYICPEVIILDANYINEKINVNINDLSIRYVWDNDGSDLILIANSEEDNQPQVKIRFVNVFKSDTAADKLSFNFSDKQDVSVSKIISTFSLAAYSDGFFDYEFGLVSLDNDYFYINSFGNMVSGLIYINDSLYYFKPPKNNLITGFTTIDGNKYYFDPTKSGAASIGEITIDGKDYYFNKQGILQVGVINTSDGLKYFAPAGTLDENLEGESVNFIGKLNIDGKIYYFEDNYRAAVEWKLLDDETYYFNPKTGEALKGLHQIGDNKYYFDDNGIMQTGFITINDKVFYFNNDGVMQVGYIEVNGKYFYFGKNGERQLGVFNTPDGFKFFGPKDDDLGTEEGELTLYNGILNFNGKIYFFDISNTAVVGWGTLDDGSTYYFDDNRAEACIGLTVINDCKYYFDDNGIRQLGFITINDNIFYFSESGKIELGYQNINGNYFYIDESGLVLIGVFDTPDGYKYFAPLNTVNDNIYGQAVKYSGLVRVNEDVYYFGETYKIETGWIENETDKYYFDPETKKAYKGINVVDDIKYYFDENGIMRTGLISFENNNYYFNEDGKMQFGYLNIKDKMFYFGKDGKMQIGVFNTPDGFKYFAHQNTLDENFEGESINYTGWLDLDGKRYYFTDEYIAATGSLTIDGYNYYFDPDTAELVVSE
property_measured: Kd (nM)
Your answer is read as nM, so omit the unit and give the number.

## Input Quick one: Kd for B10 (designed binder) NEEIIKEIKQLLKEGKKASEIIELLKKNGYEEIAKDAELAALKSKDMRKAAAETAIKKLE ?
## Output 0.0183
